# Assayed target: SARS-CoV-2 M^pro (Severe acute respiratory syndrome coronavirus 2, UniProt P0DTD1)
# Test details: Inhibition profiling in cell culture (dark-to-bright GFP reporter substrate, flow cytometry)
# Assay type: cell-based
# Condition set: read-out: IC50
Measurement type: IC50 (µM)
Express the result in µM but write the number alone.

[Q] Look up and report IC50, with SARS-CoV-2 M^pro (Severe acute respiratory syndrome coronavirus 2, UniProt P0DTD1) as system, for `CC(C)CN(C[C@@H](O)[C@H](Cc1ccccc1)NC(=O)O[C@H]1CO[C@H]2OCC[C@H]21)S(=O)(=O)c1ccc(N)cc1`
[A] 36.1

---

So I've got a bunch of compounds here, and I need their IC50 values.
# Assayed target: UniProt:P0DTD1
# Test details: Inhibition profiling in cell culture (dark-to-bright GFP reporter substrate, flow cytometry)
# Assay type: cell-based

[Q] Give the reported value of IC50 for this record: CC(C)(C)NC(=O)[C@@H]1C[C@@H]2CCCC[C@@H]2CN1C[C@@H](O)[C@H](Cc1ccccc1)NC(=O)[C@H](CC(N)=O)NC(=O)c1ccc2ccccc2n1 [Saquinavir, saquinavir]
[A] 31.4 µM

[Q] Give the reported value of IC50 for this record: Cc1c(O)cccc1C(=O)N[C@@H](CSc1ccccc1)[C@H](O)CN1C[C@H]2CCCC[C@H]2C[C@H]1C(=O)NC(C)(C)C [Nelfinavir, nelfinavir]
[A] > 200 µM

Values compiled from paper PMC7689640.
